- Measured On: T1, FcRn-p3 fusion protein (human, UniProt P55899 24-297; P61769 21-119)
- T1 construct: baculovirus expressed; coated on ELISA wells; not shown: amino terminal part of bacteriophage p3 protein and CVDE protein
- Protocol Summary: ELISA pH6, soluble Fc on coated FcRn-p3
Observed Property: EC50 (nM)
Just the number in nM, nothing appended.

1. C6A_74 (soluble recombinant Fc polypeptide) (other, EU numbering; E. coli periplasmic expression; not shown: C-terminal 6xHis tag and V5 tag) CPPCPAPELLGGPSVFLFPPKPKDTLMISRTPEITCVVVDVSHEDPEVKFNWYVDGVEVHNAKTKPREEQYNSTYRVVSVLTVLHQDWLDGKEYKCKVSNKALPAPIEKTISKAKGQPREPQVYTLPPSRDELTKNQVSLTCLVKGFYPSDIAVEWESNGQPENNYKTTPPVLDSDGSFFLYSKLTVDKSRWQQGNVFSCSVMHEALHYHYTQKSLSLSPGK ... 7.3
2. T5A_94 (soluble recombinant Fc polypeptide) (other, EU numbering; E. coli periplasmic expression; not shown: C-terminal 6xHis tag and V5 tag) CPPCPAPELLGGPSVFLFPPKPKDTLMISRTPEVTCVVEDVSHEDPEVKFNWYVDGVEVHNAKTKPREEQYNSTYRVVSVLTVLHQDWLNGKEYKCKVSNKALPAPIEKTISKAKGQPREPQVYTLPPSRDELTKNQVSLTCLVKGFYPSDITVEWESNGQPENNYKTTPLVLDSDGSFFLYSKLTVDKSRWQQGNVFSCSVMHEALHNHYTQKSLSLSPGK ... 166

Please turn your attention to the following entry.
C6A_60 (soluble recombinant Fc polypeptide) (other, EU numbering; E. coli periplasmic expression; not shown: C-terminal 6xHis tag and V5 tag) CPPCSAPELLGGPSVFLFPPKPKDTLMISRTPEVTCVVVDVSHEDPEVKFNWYVDGVEVHNAKTKPREEQYNSTYRVVSVLTVLHQDWLDGKEYKCKVSNKALPAPIEKTISKAKGQPREPQVYTLPPSRDELTKNQVSLTCLVKGFYPSDIAVEWESNGQPENNYKTTPPVLDSDGSFFLYSKLTVDKSRWQQGNVFSCSVLHEALHYHYTQKSLSLSPGK has a reported EC50 of 2.6
